For each entry below, report its CC50 at 48 h value.
testSummary: in vitro
experimentalSetup: chlorocebus sabaeus, Vero E6 (Vero C1008) cells, CC50
Express your answer in µM, writing the number without its unit.

Field CC50 at 48 h (entry CN(C)CCOC1=Cc2ccccc2Sc2ccc(Cl)cc21 [ZOTEPINE] ) reads 12.3

Field CC50 at 48 h (entry Oc1cc2c(cc1O)[C@H]1c3ccccc3CN[C@@H]1CC2 [DIHYDREXIDINE] ) reads 18.6

* * *

Tested on: SARS-CoV-2
testSummary: microbe, parasite or virus in culture
experimentalSetup: Severe acute respiratory syndrome coronavirus 2, Vero C1008, 48 h, read-out: pIC50 (converted)
For each entry below, report its IC50 value.

Field IC50 (entry `C[C@@H]1[C@@H]2Cc3ccc(O)cc3C1(C)CCN2C` ) reads > 20 µM

Field IC50 (entry C#C[C@]1(O)CC[C@H]2[C@@H]3CCC4=CCCC[C@@H]4[C@H]3CC[C@@]21C [LYNESTRENOL] ) reads > 50.1 µM

Field IC50 (entry CCCOc1ccccc1-c1nc2[nH]nnc2c(=O)[nH]1 [ZAPRINAST] ) reads > 20 µM

Field IC50 (entry CN(C(=O)CN(CCO)CC(=O)N(C)C(C)(C)Cc1ccccc1)C(C)(C)Cc1ccccc1 [OXETHAZAINE] ) reads 18.6 µM

Field IC50 (entry Cc1cc(O)cc(C)c1Cl [CHLOROXYLENOL] ) reads > 20 µM

Field IC50 (entry CCCC(CCC)C(N)=O [VALPROMIDE] ) reads > 20 µM

Field IC50 (entry c1ccc(-c2cc(CCC3CCNCC3)c3ccccc3n2)cc1 [PIPEQUALINE] ) reads > 20 µM

Field IC50 (entry COc1ccccc1CNCCCCCCNCCCCCCCCNCCCCCCNCc1ccccc1OC [METHOCTRAMINE] ) reads > 20 µM

Field IC50 (entry OCC(O)CO [GLYCERIN] ) reads > 20 µM

Field IC50 (entry Nc1[nH]cnc2ncnc1-2 [ADENINE] ) reads > 20 µM

Field IC50 (entry Cc1nnc(C(CCN2CC3CCC2CC3)(c2ccccc2)c2ccccc2)o1 [NUFENOXOLE] ) reads > 20 µM

Field IC50 (entry CN[C@@H]1[C@@H](O)[C@@H](O[C@@H]2[C@@H](O)[C@H](O[C@H]3O[C@H]([C@@H](C)NC)CC[C@H]3N)[C@@H](N)C[C@H]2N)OC[C@]1(C)O [GENTAMICIN C1] ) reads > 20 µM

Field IC50 (entry `COc1ccc(CCN(C)CCCC2(c3ccc(OC)c(OC)c3)S(=O)(=O)CCCS2(=O)=O)cc1OC` ) reads > 20 µM

Field IC50 (entry `c1ccc2c(c1)CCCc1cc(NCCN3CCOCC3)nnc1-2` ) reads > 20 µM

Field IC50 (entry Nc1cccc2c1C(=O)N(C1CCC(=O)NC1=O)C2=O (stereo not given) [POMALIDOMIDE] ) reads > 20 µM

Field IC50 (entry CCCSc1ccc2[nH]c(NC(=O)OC)nc2c1 [ALBENDAZOLE] ) reads > 20 µM

Field IC50 (entry Cc1cc(CCCOc2c(C)cc(-c3noc(C(F)(F)F)n3)cc2C)on1 [PLECONARIL] ) reads > 20 µM

Field IC50 (entry NC(=O)NCCC[C@H](N)C(=O)O [L-CITRULLINE] ) reads > 20 µM

Field IC50 (entry `O=C1N[11C](=O)C(c2ccccc2)(c2ccccc2)N1` ) reads > 20 µM

Field IC50 (entry C=CCC1(C(C)CCC)C(=O)NC(=O)NC1=O (stereo not given) [SECOBARBITAL] ) reads > 20 µM
